Target: T1, Rb^P K530I (human, UniProt P06400 380-788, K530I)
T1 construct: also called variant 21
T1 sequence (looked up): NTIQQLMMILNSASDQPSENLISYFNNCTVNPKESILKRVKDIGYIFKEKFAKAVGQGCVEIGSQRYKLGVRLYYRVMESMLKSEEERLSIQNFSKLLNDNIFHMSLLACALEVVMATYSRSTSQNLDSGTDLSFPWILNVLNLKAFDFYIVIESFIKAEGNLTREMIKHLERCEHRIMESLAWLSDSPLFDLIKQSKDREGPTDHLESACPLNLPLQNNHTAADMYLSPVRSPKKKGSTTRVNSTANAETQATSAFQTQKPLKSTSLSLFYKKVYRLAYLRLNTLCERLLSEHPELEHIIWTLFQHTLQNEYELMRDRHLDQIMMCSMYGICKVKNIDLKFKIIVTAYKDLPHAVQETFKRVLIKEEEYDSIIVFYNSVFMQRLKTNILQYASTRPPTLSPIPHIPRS
Experiment: fluorescence polarisation; 37 °C, after the 25 °C reading ramped over 7 min to 37 °C and 2 min incubation; unlabeled Rb^P against 1.5 nM TMR-E2F1^TD or 7.5 nM TMR-E7^LxCxE; 25 mM Tris pH 8.0, 200 mM NaCl, 1 mM DTT, 0.1% Tween-20; apparent Kd
Conditions: both partners purified
No end group written: not given here. TMR = tetramethyl rhodamine dye
pKd values, listed per item
Bear in mind: pKd is minus log10 of a mol/L concentration; give just that figure.

binder	parameter-measured	val
{TMR}-GEGIRDLFDCDFGDLTPLD (also called E2F^TD; source: synthetic peptide, bought: GenScript) [TMR-E2F1^TD, peptide of the E2F1 transactivation domain]	pKd	5.77

Value of measured pKd for the entry DLYCYEQLN (also: TMR label, position not given here, source: synthetic peptide, bought: GenScript) [TMR-E7^LxCxE, LxCxE peptide of the E7 oncoprotein from HPV] : 7.70
